# System Name: T1, hNav1.7-loopA3-llama Fc fusion (human)
# T1 construct: also called hNav1.7-loopA3-llFc; loopA3-llamaFc chimera
# T1 chain: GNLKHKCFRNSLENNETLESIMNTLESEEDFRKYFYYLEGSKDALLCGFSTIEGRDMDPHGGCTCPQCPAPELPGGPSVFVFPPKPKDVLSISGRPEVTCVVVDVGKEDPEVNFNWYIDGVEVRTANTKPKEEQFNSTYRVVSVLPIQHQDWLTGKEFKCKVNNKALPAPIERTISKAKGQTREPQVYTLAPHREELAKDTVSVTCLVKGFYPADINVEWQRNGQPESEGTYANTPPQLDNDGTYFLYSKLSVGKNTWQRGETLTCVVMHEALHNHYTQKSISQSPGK
# Method Notes: ELISA, coated hNav1.7-loopA3-llama Fc, mAb titrated
pEC50: −log10 of the molar value.
Readout Kind: pEC50

>>> readout_number("3F11 (antibody, human IgG1, V domains shown) VH: QVQLVESGGGLVQPGGSLRLSCAASGFTFSSYWMYWVRQAPGKGLEWVSAINTGGGSTYYADSVKGRFTISRDNAKNTLYLQMNSLKPEDTALYYCARGPGYSGSYIEGWAYWGQGTQVTVSS VL: DIVMTQSPTSVTASVGEKVTINCKSSQSVVSGSNQKSYLNWYQQRPGQSPRLLIYHASTQESGIPDRFSGSGSTTDFTLTISSVQPEDAAVYYCQQAYNNPYSFGSGTRLEIK")
10.14
>>> readout_number("2F12 (antibody, human IgG1, V domains shown) VH: QVQLVESGGGLVQPGGSLRLSCAASGFTFSSYWMYWVRQAPGKGLEWVSAINTGGGSTYYADSVKGRFTISRDNAKNTLYLQMNSLKPEDTALYYCARGPGYSGKYIEGWAYWGQGTQVTVSS VL: DIVMTQSPRSVTASVGEKVFINCKSSQSVVSESNQRSYLNWYQQRPGQSPRLLIYYASTQESGLPDRFSGSGSTTDFTLTISSVQPEDAAVYYCQQAYSAPYSFGSGTRLEIK")
10.24
>>> readout_number("4E8 (antibody, human IgG1, V domains shown) VH: EVQLQESGGGLVQPGGSLRLSCAASGFTFDDYAMSWVRQAPGKGLEWVSAISWNGGSTYYAESMKGRFTISRDNAKNTLYLQMNSLKSKDTAVYYCARRRYGLGSEYDYWGQGTQVTVSS VL: NFMLTQPSAVSVSLGQTARITCQGSSFGSSYAHWYQQMPGQAPILVIYRDSERPSGIPDRFSGSNSGGTATLTISGAQAEDEADYYCQSGSSSGNAHAVFGGGTHLTVLG")
9.89
